B1: Max-interacting protein 1, residues 70 to 120; numbered along this chain, P50539 (parent)
chain: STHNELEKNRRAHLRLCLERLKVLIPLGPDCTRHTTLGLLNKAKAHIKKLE

- Variants of: B1
- Experiment description: abundance fitness (aPCA) (normalised: wild type 0, dead -1); higher = more abundant; growth selection in yeast, the domain comes from the species named
- Experimental context: Homo sapiens
Assign Criterion met to entries whose abundance fitness meets or exceeds -0.1; assign Criterion not met to the rest.

Problem: Does `S1F` have a reported abundance fitness of at least -0.1?
Result: Criterion met

Problem: Is the recorded value of abundance fitness equal to or greater than -0.1 for this variant? `A12S`
Result: Criterion met

Problem: Hi team, for `T36E` , is the recorded abundance fitness at or above -0.1?
Result: Criterion not met

Problem: API: above_or_equal(metric=abundance fitness, cutoff=-0.1) for item `P26M`
Result: Criterion met

Problem: Please check the record `D30G` and state if its abundance fitness is at or above -0.1.
Result: Criterion met

Problem: Answer whether abundance fitness of `L27R` is greater than or equal to -0.1.
Result: Criterion met

Problem: Record `N4H` ; criterion: abundance fitness no lower than -0.1. Met?
Result: Criterion not met

Problem: # check: abundance fitness of `I47V` is greater than or equal to -0.1
Result: Criterion not met

Problem: Quick check: does `R20E` have abundance fitness greater than or equal to -0.1?
Result: Criterion not met

Problem: Decide: is the reported value of abundance fitness for `R20D` equal to or greater than -0.1?
Result: Criterion not met

Source listed as the Human Domainome abundance scans (Beltran et al. 2025).
